Where do the numbers come from? From the supplement of paper PMC3334620.

Target: Yer064c (UniProt P40041)
Sequence: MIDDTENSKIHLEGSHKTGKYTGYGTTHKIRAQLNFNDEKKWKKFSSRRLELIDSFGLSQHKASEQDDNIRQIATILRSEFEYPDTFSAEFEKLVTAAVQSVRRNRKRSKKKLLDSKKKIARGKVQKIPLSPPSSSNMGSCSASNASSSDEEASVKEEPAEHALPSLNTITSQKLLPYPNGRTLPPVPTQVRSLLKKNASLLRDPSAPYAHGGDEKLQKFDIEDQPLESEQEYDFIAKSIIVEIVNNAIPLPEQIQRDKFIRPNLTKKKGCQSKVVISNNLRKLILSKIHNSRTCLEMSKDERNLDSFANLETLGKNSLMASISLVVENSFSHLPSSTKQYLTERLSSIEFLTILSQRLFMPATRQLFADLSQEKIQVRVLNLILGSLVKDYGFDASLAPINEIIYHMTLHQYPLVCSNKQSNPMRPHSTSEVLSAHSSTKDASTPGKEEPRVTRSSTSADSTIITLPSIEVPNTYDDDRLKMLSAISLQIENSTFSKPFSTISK
Assay: PBM E-score (8-mer binding enrichment) (E-score (-0.5 to 0.5)); higher = stronger / more preferred TF binding
Conditions: protein concentration: 200 nM; construct: GST-full length
The full ranking holds about 33,000 sequences; the median of “E-score (-0.5 to 0.5)” is about -0.036, and the highest 2% start at about 0.37. The full list was thinned out, with the highest values kept by preference.
measured endpoint: PBM E-score

> print(dat)
    primary.sequence  reported
 1          AGAAGCAG      -0.1
 2          AGACTCCA     0.323
 3          GCACCCCA     -0.26
 4          CGCAAGGA    -0.167
 5          CAGTCAGC     0.406
 6          AGGTGACG    -0.188
 7          GAGCACAA    0.0121
 8          CCACTCCA   -0.0978
 9          CTTGAGGC    -0.146
10          TCGTTCCA    -0.108
11          ATAGTCAA     0.402
12          CTAGTAAG    0.0365
13          GGTCAAAA    0.0441
14          AGTTGCCA    -0.223
15          AAGTCAGA     0.341
16          AGACTCCC      0.32
17          AGATCTCA    0.0373
18          GAGAGCGA   -0.0993
19          TGCTGAAA   -0.0596
20          AAGTGACG    0.0587
21          TAGTTGAA     0.127
22          GATCACTA     0.135
23          CTGACGGA   -0.0463
24          CAGTCAGA     0.361
25          AGTCCTAA     0.366
26          CAGGATAA    -0.208
27          AGACTCAC     0.457
28          ATTGAGTC     0.479
29          GAGTCAGC      0.48
30          ACTATCTC     0.212
31          GGACTCCA     0.176
32          ATTCAAAT     0.214
33          GAGGCCAC    -0.319
34          ATACAAGC    -0.123
35          AGGTGACA   -0.0676
36          CAGAGGGA    -0.199
37          GCGTCAGC    -0.304
38          ATCGTCAT    0.0309
39          CGACTCCG     0.332
40          AGACTCGC     0.336
41          CTTCAGGA   0.00919
42          ATGTAATC     0.291
43          AATCACTC     0.385
44          AATCACTG     0.375
45          CCAGAAAG    0.0675
46          ATGTCAGC   -0.0283
47          ATAGTCCA     0.213
48          ACCTGGTC     -0.12
49          GCGGACCA   -0.0691
50          CAACCTGC    -0.127
51          CGACTCCA     0.378
52          CCACAAAG   -0.0168
53          TGTCCTAA   -0.0793
54          AGTCAAAC      0.35
55          AATTAATT     0.177
56          AAGCACTG    0.0399
57          CAGTCAGG     0.333
58          CTAGTCCA     0.109
59          GCGTCGCA    0.0193
60          AGGTAGGC    -0.231
61          ACACTTTC   -0.0867
62          AAGTCAGC     0.422
63          ACTCTCAC     0.173
64          CACCCATC     0.102
65          ACACTCTG   -0.0556
66          ATGACCGA   -0.0163
67          ATACTCAG     0.214
68          AGGTGACT     0.484
69          AGTCAAAT     0.412
70          AGACTCTA     0.267
71          CGACTCCC     0.404
72          AAACACTG    0.0608
73          CTTGAGTC     0.466
74          ATTGAGTG     0.149
75          CATTTTGC   -0.0161
76          GGCACGGA    -0.127
77          AAAAGCCG    -0.213
78          GCAACTGC   -0.0982
79          CCTGGCAC    -0.304
80          AGGTGGAC    -0.133
81          TGACTCCA     0.479
82          AGTCAAAA     0.408
83          GAAGCGGA    -0.189
84          AGACTCAA     0.444
85          AATAGGAG    -0.113
86          AGTAGCTG    0.0121
87          ACCTCCTA    -0.134
88          ACGTGACT     0.468
89          AAGGCAGG    -0.192
90          CAACTCCC     -0.15
91          CATCACTA    0.0474
